Data provenance: PubChem BioAssay (EPA / NIEHS)

test: ATG_ERE_CIS: Attagene CIS-FACTORIAL HepG2 Assay for Estrogen Response Element (ERE) (AID 2282940); conditions: HepG2 ERE cis-reporter, Attagene RNA transcript; actives raise or lower the signal
Active and inactive are the calls of the source. Rule for the calls: active = hit-call score of the fitted dose curve at least 0.9, where 1 is the maximum; inactive = score below 0.9.
Outcome codes: TRUE = active, FALSE = inactive

# Compound, Assigned Category
records = [
    ("CCC(CC)C(=O)O", "FALSE"),
    ("C=C(C)[C@@H]1CCC2=CCC[C@@H](C)[C@]2(C)C1", "TRUE"),
    ("ON(Cc1ccccc1)Cc1ccccc1", "FALSE"),
    ("CCCCC(CC)COC(=O)c1ccccc1O (centres undefined)", "TRUE"),
    ("CCc1c(C(=O)O)c(=O)cnn1-c1ccc(Cl)cc1", "TRUE"),
    ("CCCCCCCCCCOS(=O)(=O)O", "FALSE"),
    ("CC(C)(C)C(=O)CCc1ccc(Cl)cc1", "TRUE"),
    ("O=S1(=O)OC(c2ccc(O)cc2)(c2ccc(O)cc2)c2ccccc21", "TRUE"),
    ("C=COCCCC", "FALSE"),
    ("Cc1ccc(C(C)c2ccc(C)c(C)c2)cc1C", "FALSE"),
    ("Cc1cnc(NC(=O)C2=C(O)c3ccccc3S(=O)(=O)N2C)s1", "FALSE"),
    ("CCCCCCCC[N+](C)(CCCCCCCC)CCCCCCCC", "FALSE"),
    ("C1CN(SSN2CCOCC2)CCO1", "FALSE"),
    ("c1ccc2c(c1)ccc1cc3c(ccc4ccccc43)cc12", "TRUE"),
]

----------
read-out: Monocyte Chemoattractant Protein-1 (MCP1), CCL2 (gene 6347); test: BSK_CASM3C_MCP1: BioMAP Diversity Plus: CASM3C Assay for Monocyte Chemoattractant Protein-1 (MCP1) Biomarker Activity (AID 2283046); settings: primary human coronary artery smooth muscle cells; actives raise or lower the signal;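 note: MCP-1 level quantified by ELISA 24 h after dosing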
Activity calls are given as the source filed them. The calls were made as follows: active = hit-call score of the fitted dose curve at least 0.9, where 1 is the maximum; inactive = score below 0.9.
Outcome codes: active, inactive

# Compound, Assigned Category
rows = [
    ("S=C(NC1CCCCC1)NC1CCCCC1", "inactive"),
    ("CCO[Si](CCCN=C=O)(OCC)OCC", "inactive"),
    ("C/C=C\\C/C=C/CCCCCCCCOC(C)=O", "inactive"),
    ("CN1C(=O)N(C)C(O)C1O (configuration not stated)", "inactive"),
    ("COCc1c(C(C)C)nc(C(C)C)c(/C=C/[C@@H](O)C[C@@H](O)CC(=O)O)c1-c1ccc(F)cc1", "inactive"),
    ("CC(C)(c1cc(Br)c(OCCO)c(Br)c1)c1cc(Br)c(OCCO)c(Br)c1", "inactive"),
    ("c1ccc2c(c1)ccc1cc3c(ccc4ccccc43)cc12", "inactive"),
    ("CCCCC/C=C\\C/C=C\\CCCCCCCC(=O)OC", "active"),
    ("CCCCCCCCCCCCCCCC[N+](C)(C)CC", "active"),
    ("O=c1c2ccccc2oc2ccccc12", "inactive"),
    ("O=C(c1ccc(O)cc1)c1ccc(O)cc1O", "inactive"),
    ("O=C(Nc1ccccc1SSc1ccccc1NC(=O)c1ccccc1)c1ccccc1", "inactive"),
]

----------
target: Paired box protein Pax-6 (Homo sapiens); test: ATG_Pax6_CIS: Attagene CIS-FACTORIAL HepG2 Assay for human Paired Box 6 (PAX6) (AID 2282956); conditions: HepG2 CIS-FACTORIAL PAX6 reporter transcription, RNA readout; actives raise or lower the signal
Activity calls are given as the source filed them. The calls were made as follows: active = hit-call score of the fitted dose curve at least 0.9, where 1 is the maximum; inactive = score below 0.9.
Outcome codes: active, inactive

# Compound, Assigned Category
records = [
    ("CC(=O)OCCC1CCCCC1", "inactive"),
    ("O=C(O)c1ccccc1Nc1cccc(C(F)(F)F)c1", "inactive"),
    ("CCN(CCO)c1cccc(C)c1", "inactive"),
    ("CCCNC(=O)NS(=O)(=O)c1ccc(Cl)cc1", "inactive"),
    ("CC(=O)OC1C2(C)CCC(C2)C1(C)C (stereo not drawn)", "inactive"),
    ("CCCCC(CC)COCC1CO1 (stereo not drawn)", "inactive"),
    ("C=CC(=O)OCCC(=O)O", "inactive"),
    ("CC(C)CCCCCOC(=O)CCS", "inactive"),
    ("O=S(=O)(O)c1cc(S(=O)(=O)O)c2ccc3c(S(=O)(=O)O)cc(S(=O)(=O)O)c4ccc1c2c43", "inactive"),
    ("CC(C)c1ccc(C#N)cc1", "inactive"),
    ("CC1=CC[C@H]2C[C@@H]1C2(C)C", "inactive"),
    ("CCCCCCCCC(=O)OCC", "inactive"),
    ("CC(C)c1ccc2c(c1)CC[C@H]1[C@](C)(CN)CCC[C@]21C", "active"),
    ("N#[N+]c1ccc2c(S(=O)(=O)[O-])cccc2c1O", "inactive"),
    ("FC(F)(F)C(=NOCC1OCCO1)c1ccc(Cl)cc1", "inactive"),
    ("c1cc(C(c2ccc(OCC3CO3)cc2)C(c2ccc(OCC3CO3)cc2)c2ccc(OCC3CO3)cc2)ccc1OCC1CO1 (stereo not drawn)", "active"),
    ("CC1(C)O[C@@H]2C[C@H]3[C@@H]4C[C@H](F)C5=CC(=O)CC[C@]5(C)[C@H]4[C@@H](O)C[C@]3(C)[C@]2(C(=O)CO)O1", "inactive"),
    ("CCC(C)(C)C1CCCCC1OC(C)=O (stereo not drawn)", "inactive"),
    ("CCCCCCC1(C)CCC(=O)O1 (stereo not drawn)", "inactive"),
    ("C/C=C\\C/C=C/CCCCCCCCOC(C)=O", "active"),
    ("O=C1CCCCCCCCCCCCCCCO1", "inactive"),
    ("O=c1c2ccccc2oc2ccccc12", "inactive"),
    ("O=c1cc(-c2ccccc2)oc2ccccc12", "active"),
    ("CCOC(=O)[C@H](C)O", "inactive"),
    ("CCCCCCOC(=O)C(C)CC (stereo not drawn)", "inactive"),
    ("C=CCOCC(O)CCl (stereo not drawn)", "inactive"),
    ("C1CN(SSN2CCOCC2)CCO1", "inactive"),
    ("O=C(Nc1ccccc1)c1ccccc1O", "inactive"),
]
